Study target: amyloid beta (Ab) 1-42 peptide (Homo sapiens, UniProt P05067)
Construct: amyloid beta (Ab) 1-42 peptide; purchased Bachem
Sequence (P05067 672-713 limits assumed): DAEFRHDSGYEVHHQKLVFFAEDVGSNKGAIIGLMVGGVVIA
Test: Inhibition of amyloid beta (Ab) 1-42 peptide aggregation (thioflavin T spectrofluorescence assay)
Format: biochemical
Test conditions: experiment 1; small molecule to Ab1-42 10:1, 24 hrs at 37° C.
Quantity kind: ThT assay at 330 mM % inhib. (%)
Numeric answer only, unit % assumed.

CNc1cccc(CCNc2cccc(NC)n2)n1
77.6

Data point: CCCNc1ccc(NCc2ccc(NCc3ccc(NCCC)nc3)nc2)nc1 [Compound 8, reference compound] ; ThT assay at 330 mM % inhib. = 73.3

Data point: CNc1cccc(NCCc2cccc(NCCc3ccccn3)n2)n1 ; ThT assay at 330 mM % inhib. = 88.8

Data point: FC(F)(CNc1cccc(NCCc2ccc3c(n2)NCCC3)n1)c1ccccn1 ; ThT assay at 330 mM % inhib. = 95.3

Data point: FC(F)(CNc1cccc(NCCc2ccccn2)n1)c1ccc2c(n1)NCCC2 ; ThT assay at 330 mM % inhib. = 89.6

Data point: c1ccc(CCNc2cccc(NCCc3ccc4c(n3)NCCC4)n2)nc1 ; ThT assay at 330 mM % inhib. = 91.8

Data point: CNc1cccc(NCCc2ccccn2)n1 ; ThT assay at 330 mM % inhib. = 68.4

Data point: FC(F)(CNc1cccc(NCC(F)(F)c2ccc3c(n2)NCCC3)n1)c1ccccn1 ; ThT assay at 330 mM % inhib. = 56.4

----------
Study target: amyloid beta (Ab) 1-42 peptide (Homo sapiens, UniProt P05067)
Construct: amyloid beta (Ab) 1-42 peptide
Test: Inhibition of amyloid beta (Ab) 1-42 peptide aggregation (thioflavin T spectrofluorescence assay)
Test conditions: mean of 2 experiments; Ab1-42 aggregation, 24 hrs at 37° C.; read-out: IC50 ThT-assay
Quantity kind: pIC50
When answering, recall that pIC50 equals minus log10 of the concentration in mol/L, and write that number alone.

# example entries with known answers
CNc1cccc(NCCc2cccc(NCc3ccccn3)n2)n1 [Compound 2]
4.89
CNc1cccc(CCNc2cccc(CCN(c3ccccn3)c3ccccn3)n2)n1 [Compound 13]
3.53
CNc1cccc(CCNc2cccc(NCCc3ccccn3)n2)n1 [Compound 3]
4.45

Data point: CNc1cccc(CCNc2cccc(CCNc3ccccn3)n2)n1 [Compound 5] ; pIC50 = 3.85

Data point: CNc1cccc(NCCc2cccc(NCCc3ccccn3)n2)n1 [Compound 1] ; pIC50 = 4.59

Data point: CNc1cccc(NCCCc2cccc(NCCCc3ccccn3)n2)n1 [Compound 4] ; pIC50 = 4.78

----------
Study target: amyloid beta (Ab) 1-42 peptide (Homo sapiens)
Construct: amyloid beta (Ab) 1-42 peptide; purchased Bachem
Test: Inhibition of amyloid beta (Ab) 1-42 peptide aggregation (thioflavin T spectrofluorescence assay)
Assay type: biochemical
Test conditions: experiment 2; small molecule to Ab1-42 10:1, 24 hrs at 37° C.
Label true (1) for high-side ThT assay at 330 mM % inhib. (at or above 80%) and false (0) for low-side ThT assay at 330 mM % inhib. (below it).

Some entries whose results are on file:
c1ccc(CCNc2cccc(NCCc3ccc4c(n3)NCCC4)n2)nc1
true (1)
FC(F)(CNc1cccc(NCCc2ccccn2)n1)c1ccc2c(n1)NCCC2
false (0)
FC(F)(CNc1cccc(NCCc2ccc3c(n2)NCCC3)n1)c1ccccn1
true (1)
CNc1cccc(NCCc2ccccn2)n1
false (0)

Quick check, ThT assay at 330 mM % inhib. >= 80%? FC(F)(CNc1cccc(NCC(F)(F)c2ccc3c(n2)NCCC3)n1)c1ccccn1
false (0)

Quick check, ThT assay at 330 mM % inhib. >= 80%? CNc1cccc(CCNc2cccc(NC)n2)n1
false (0)
